Data origin, for the record: PubChem BioAssay AID1159580

Assay: chemical genetic growth profiling, strain panel (AID 1159580);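 also: tested at 20 µM; growth read once vehicle control cultures reached saturation at 30 °C; 1 = growth at the plate median or of vehicle wells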
Conditions: S. cerevisiae deletion strains, growth OD, locus YHR200W, strain rpn10, stronger effect = lower value
The whole screen tested about 5,500 compounds, of which about 2,000 (36%) were called active. Roughly 18% stayed inconclusive and do not appear here. Some of the results follow.
Form field: normalized growth (one value per entry).
Reply briefly: the number, and no unit.

Q) Fill blank: measured normalized growth of the molecule COc1ccc(-c2coc3cc(O)ccc3c2=O)c(OC)c1 is ____.
A) 1

Q) Look at this molecule and give its reported normalized growth. COc1ccc(C(c2ccc(OC)cc2)C(Cl)(Cl)Cl)cc1
A) 0.985

Q) Which normalized growth value belongs to COC(=O)/C=C/C(C)=C/C=C/C(C)=C/C=C/C=C(C)/C=C/C=C(C)/C=C/C(=O)O ?
A) 1.01

Let us move to another entry and its normalized growth.
Q) So what's the measured normalized growth for this one? C=C1C2CC[C@@]3(C)[C@H](c4ccoc4)OC(=O)C[C@]13O[C@H]1CC(=O)C(C)(C)[C@H](C(OC(C)=O)C(=O)OC)[C@@]21C (some centres undefined)
A) 1.01

###

Test: chemical genetic growth profiling, strain panel (AID 1159580);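 also: tested at 20 µM; growth read once vehicle control cultures reached saturation at 30 °C; 1 = growth at the plate median or of vehicle wells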
Details: S. cerevisiae deletion strains, growth OD, locus YPL256C, strain CLN2, stronger effect = lower value
In all, about 5,500 compounds went through this assay and about 2,000 (36%) were called active. Another 18% or so got no clear call; they are omitted. The list shows a part of the results.
Please note: normalized growth exactly at 1 is F. Only values below 1 get T.

// known answers, use as guide
Q) Strictly below 1 in normalized growth? Nc1ncn[nH]1
A) T

Q) Dear reviewer, please state whether C=C[C@@](C)(O)CCC1C(=C)C[C@H](O)C2C(C)(C)CCCC12C (some centres undefined) has normalized growth strictly beneath 1.
A) T

Q) Answer whether the compound O=C1CCC(N2C(=O)c3ccccc3C2=O)C(=O)N1 (centres undefined) has normalized growth strictly less than 1
A) T

Q) Strictly below 1 in normalized growth? CN1CC(=O)N=C1N
A) T

Q) Would you kindly verify if normalized growth of CCN(CC)C(=O)N1CCN(C)CC1 is strictly less than 1?
A) F

Q) I'd appreciate it if you could check whether CCC(C)C(=O)O[C@@H]1C[C@@]2(C)[C@H](c3ccoc3)OC(=O)CC23OC2(C)OC34[C@H](OC(=O)C(C)C)[C@@]3(O)[C@@H](OC(=O)C5(C)OC5C)[C@@]5(C)C[C@]3(O)[C@@](C)([C@H]5CC(=O)OC)C14O2 (some centres undefined) has normalized growth smaller than 1.
A) F

---
Q) I'd appreciate it if you could check whether CC(C)(C)c1ccc(N/N=C(\C#N)C(N)=O)cc1 has normalized growth smaller than 1.
A) T

Q) Lab note: confirm whether the reported normalized growth for this compound is below 1, equality not counting. compound: CCCCCCCCCCCCCc1ccco1
A) T

Q) Hi there! Is normalized growth for NCCCS(=O)(=O)O below 1, do you know?
A) T

Q) Quick check: does NCCS(=O)(=O)O have normalized growth under 1?
A) T

Q) Say whether its normalized growth is strictly beneath 1. Entry: CC(C)c1ccc(COC(=O)Nc2ccc(CSc3ccc(Cl)cc3)o2)cc1
A) T

###

Experiment: chemical genetic growth profiling, strain panel (AID 1159580);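 also: tested at 20 µM; growth read once vehicle control cultures reached saturation at 30 °C; 1 = growth at the plate median or of vehicle wells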
Details: S. cerevisiae deletion strains, growth OD, locus YOR070C, strain gyp1, stronger effect = lower value
The whole screen tested about 5,500 compounds, of which about 2,000 (36%) were called active. Not shown: some 18% with an inconclusive outcome. This is one part of the list.
measuredEndpoint: normalized growth
Just the number, please, no unit after it.

Worked cases, answers included:
Q) For the compound Oc1cc(O)c2c(c1)O[C@H](c1ccc(O)c(O)c1)[C@@H](O)C2 , what normalized growth is on record?
A) 0.996

Q) What does the data say about its normalized growth? Entry: COc1ccc2c(c1)OC/C(=C\c1ccc(OC)c(O)c1)C2=O
A) 0.882

Q) Can you share its normalized growth? I mean this compound: C=C[C@@](C)(O)CCC1C(=C)C[C@H](O)C2C(C)(C)CCCC12C (stereo partly specified)
A) 0.986

Q) Fill in the blank: the reported normalized growth of Cc1ccccc1C(OCCN(C)C)c1ccccc1 (stereo unspecified) is ____.
A) 0.996

Continuing:
Q) Sample C=C1C2CC[C@@]3(C)[C@H](c4ccoc4)OC(=O)C[C@]13O[C@H]1CC(=O)C(C)(C)[C@H](C(OC(C)=O)C(=O)OC)[C@@]21C (stereo partly specified) — what was its normalized growth?
A) 1.03

Q) Field request: normalized growth | item: COc1ccc(C(=O)O)cc1OC
A) 1

Q) Please report the recorded normalized growth for CC[C@@]1(O)C[C@H](O[C@H]2C[C@H](N(C)C)[C@H](O)[C@H](C)O2)c2c(cc3c(c2O)C(=O)c2c(O)ccc(O)c2C3=O)[C@H]1C(=O)OC .
A) 0.989

Q) Query (compound): CC[C@@]1(O)C[C@H](O[C@H]2C[C@H](N(C)C)[C@H](O)[C@H](C)O2)c2c(cc3c(c2O)C(=O)c2c(O)cccc2C3=O)[C@H]1C(=O)OC ; field requested: normalized growth
A) 0.898

Q) Return reported normalized growth; argument: O=C1CCC(N2C(=O)c3ccccc3C2=O)C(=O)N1 (stereo unspecified)
A) 1.02
